Can you tell me scaled log2 fold change for the items I'm about to list?
B1: library; numbered along this chain (parent)
chain: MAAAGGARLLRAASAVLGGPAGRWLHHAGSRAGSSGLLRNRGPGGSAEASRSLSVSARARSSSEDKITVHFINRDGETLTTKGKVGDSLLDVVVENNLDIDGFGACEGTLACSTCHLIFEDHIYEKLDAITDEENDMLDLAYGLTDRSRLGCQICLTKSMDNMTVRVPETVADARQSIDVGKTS

variants of: B1; assay: scaled log2 fold change in cell abundance, elesclomol vs control (0 = silent mean, 1 = nonsense mean) (scaled log2 ratio); higher = higher viability under elesclomol (loss of FDX1 cuproptosis function); settings: with HEK293T FDX1 KO; elesclomol 40 nM; glucose 10 mM; 11 days;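 note: variant abundance is its share of total variant reads in each endpoint sample, from next-generation sequencing of the integrated ORF PCR-amplified out of genomic DNA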
One number for each entry.

| Variant code | scaled log2 fold change |
| --- | --- |
| A49Q | 0.944 |

Please look at the items below and tell me scaled log2 fold change for each one, in order.
1. E169H
2. Q153W
3. E120H

0.526
0.414
-0.794

Look up scaled log2 fold change for the entries below, preserving their order.
1. L89M
2. A49Y

1: 0.404; 2: -1.02
